- Measurement target: T1, NT-3 (neurotrophin-3) (Homo sapiens, UniProt P20783 P20783:139-257)
- T1 sequence: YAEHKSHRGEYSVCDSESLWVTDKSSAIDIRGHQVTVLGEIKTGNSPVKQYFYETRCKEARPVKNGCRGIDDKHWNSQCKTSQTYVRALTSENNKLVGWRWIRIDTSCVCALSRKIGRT
- Method summary: cell_activity; TF-1
- Settings: tags: R&D Systems; chain copies: 2
Assay readout: IC50 (nM)
# output: bare number, implied unit nM

Known results for binders:
Binder	IC50 [nM]
GGGUCCUGGCCAAGAGUUUCCGUCUCGUGGUCUGUUACCC (ssRNA, 2'-OMe G (G8,G34 2'-OH), dA, 2'-F C/U except 2'-OMe U4,C6,C10,C11,C21,U23,C26,U28,U31,C32,U35,C38-40; 5',3' idT) [SEQ ID NO: 78(4) (printed 76(4) in sequence list)]	3
GGGUCCUGGAUAAGAGUUUCCGUCUCGUAUCCUGUUACCC (ssRNA, as 82(1) except 2'-OMe C26) [SEQ ID NO: 82(9)]	34.8
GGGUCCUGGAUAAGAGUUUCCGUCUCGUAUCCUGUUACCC (ssRNA, as 82(1) except 2'-OMe C32) [SEQ ID NO: 82(13)]	48.8
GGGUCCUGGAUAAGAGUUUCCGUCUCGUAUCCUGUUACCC (ssRNA, as 82(1) except 2'-OMe U30) [SEQ ID NO: 82(11)]	38.1

Documented IC50 of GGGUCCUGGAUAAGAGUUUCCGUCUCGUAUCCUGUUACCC (ssRNA, as 82(1) except 2'-OMe U28) [SEQ ID NO: 82(10)] : 35.3

Notebook: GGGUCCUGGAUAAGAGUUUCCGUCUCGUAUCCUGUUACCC (ssRNA, as 82(1) except 2'-OMe C6) [SEQ ID NO: 82(3)] , IC50 read as 42

Summary for this binder, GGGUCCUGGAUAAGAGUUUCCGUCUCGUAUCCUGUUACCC (ssRNA, as 82(1) except 2'-OMe C20) [SEQ ID NO: 82(5)] : IC50 is 51.2

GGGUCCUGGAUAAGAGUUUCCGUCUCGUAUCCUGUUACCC (ssRNA, as 82(1) except 2'-OMe U11) [SEQ ID NO: 82(4)] has a reported IC50 of 30.4

Lookup result for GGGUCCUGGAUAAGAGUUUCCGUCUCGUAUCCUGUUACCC (ssRNA, as 82(1) except 2'-OMe C40) [SEQ ID NO: 82(18)] ; measured IC50: 38.7

Lab note: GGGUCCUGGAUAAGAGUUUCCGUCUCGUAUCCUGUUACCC (ssRNA, as 82(1) except 2'-OMe C31) [SEQ ID NO: 82(12)] gave IC50 of 34.7
